target: mutant CFTR (Homo sapiens, UniProt P13569, DEL508-508); construct: expressed in transfected cells; assay: Fluorescence (HS-YFP) assay for CFTR activity, corrector assay; format: cell-based; details: CFBE41o- and FRT cells with stable expression of mutant CFTR, read-out: activity (EC50)
Sequence (P13569 with tags, fused parts or gaps DEL508-508): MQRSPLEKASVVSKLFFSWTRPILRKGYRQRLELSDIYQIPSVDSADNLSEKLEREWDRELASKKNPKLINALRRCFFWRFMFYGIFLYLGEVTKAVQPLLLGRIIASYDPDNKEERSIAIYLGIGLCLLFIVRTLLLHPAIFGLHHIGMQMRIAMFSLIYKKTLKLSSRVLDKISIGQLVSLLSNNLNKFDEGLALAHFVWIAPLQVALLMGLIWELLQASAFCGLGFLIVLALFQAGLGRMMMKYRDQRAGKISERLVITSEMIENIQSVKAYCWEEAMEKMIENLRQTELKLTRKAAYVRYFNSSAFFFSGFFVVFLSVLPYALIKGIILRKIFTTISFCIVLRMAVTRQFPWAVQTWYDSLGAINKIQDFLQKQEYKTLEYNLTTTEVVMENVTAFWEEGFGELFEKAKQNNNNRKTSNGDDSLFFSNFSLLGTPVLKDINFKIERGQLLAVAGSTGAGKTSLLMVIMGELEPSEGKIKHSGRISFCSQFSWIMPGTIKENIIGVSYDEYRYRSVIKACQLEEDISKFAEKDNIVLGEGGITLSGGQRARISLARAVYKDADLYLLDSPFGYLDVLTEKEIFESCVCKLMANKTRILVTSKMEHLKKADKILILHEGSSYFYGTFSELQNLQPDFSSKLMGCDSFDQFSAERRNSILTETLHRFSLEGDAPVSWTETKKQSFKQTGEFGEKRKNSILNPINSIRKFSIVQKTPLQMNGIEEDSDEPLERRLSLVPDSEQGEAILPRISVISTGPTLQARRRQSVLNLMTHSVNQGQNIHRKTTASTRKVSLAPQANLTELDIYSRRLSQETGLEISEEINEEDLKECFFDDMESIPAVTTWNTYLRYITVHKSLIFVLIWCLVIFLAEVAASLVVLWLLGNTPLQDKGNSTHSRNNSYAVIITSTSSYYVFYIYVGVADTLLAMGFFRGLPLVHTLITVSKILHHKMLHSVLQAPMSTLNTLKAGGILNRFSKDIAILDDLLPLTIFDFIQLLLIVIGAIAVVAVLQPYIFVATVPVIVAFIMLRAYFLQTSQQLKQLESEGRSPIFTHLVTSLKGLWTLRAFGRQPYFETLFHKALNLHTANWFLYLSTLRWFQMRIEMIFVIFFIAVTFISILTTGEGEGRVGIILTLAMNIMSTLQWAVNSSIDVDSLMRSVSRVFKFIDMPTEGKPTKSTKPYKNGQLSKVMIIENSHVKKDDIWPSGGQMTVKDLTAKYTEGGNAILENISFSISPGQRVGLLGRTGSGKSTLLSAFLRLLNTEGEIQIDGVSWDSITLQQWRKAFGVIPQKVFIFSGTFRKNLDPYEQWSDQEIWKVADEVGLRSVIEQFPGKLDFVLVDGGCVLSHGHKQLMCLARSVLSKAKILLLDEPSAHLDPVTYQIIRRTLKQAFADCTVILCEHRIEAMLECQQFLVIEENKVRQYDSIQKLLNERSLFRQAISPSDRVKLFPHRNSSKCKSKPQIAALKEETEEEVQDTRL
pEC50: −log10 of the molar value.
For each entry below, report its pEC50 value.

For the molecule "COc1ccc(NC(=O)c2cccc(-n3nc(C(F)(F)F)c4c3CCN(C(=O)C(C)(C)C)C4)c2)cn1" , what pEC50 is on record? < 5.70

For the molecule CN(C(=O)c1cccc(-n2nc(C(F)(F)F)c3c2C(Oc2ccc(C(=O)O)cn2)CCC3)c1)c1ccc2c(c1)OC(F)(F)O2 (single isomer, unassigned) [Compound 194] , what pEC50 is on record? > 6.00

For the molecule "CN(C(=O)c1cccc(-n2nc(C(F)(F)F)c3c2CCN(C(=O)C(C)(C)c2ccccc2)C3)c1)c1ccc2c(c1)OCO2" , what pEC50 is on record? > 6.00

For the molecule "CN(C(=O)c1cccc(-n2nc(C(F)(F)F)c3c2CCN(C(=O)C(C)(C)C)C3)c1)c1ccc2c(c1)OCO2" , what pEC50 is on record? > 6.00

For the molecule "Cc1nn(CCC(=O)OC(C)(C)C)c(C)c1S(=O)(=O)N1CCc2c(c(C(F)(F)F)nn2-c2cccc(C(=O)N(C)c3ccc4c(c3)OCO4)c2)C1" , what pEC50 is on record? > 6.00

For the molecule "CN(C(=O)c1cccc(-n2nc(C(F)(F)F)c3c2CCN(C(=O)C(C)(C)O)C3)c1)c1ccc2c(c1)OCO2" , what pEC50 is on record? > 6.00
